Test system: Escherichia coli TOP10
protocolSummary: shrunken log2 fold change of peptide-encoding DNA abundance (4.5 h post-induction vs induction); higher = less antimicrobial activity (less host growth inhibition)
protocolConditions: time post-induction: 4.5 h; library: site-saturation at positions 5, 18, 19, 20
Listing of recorded shrunken log2 fold change by entry.

[
  {
    "constructSequence": "RRIRQRPPRLPRPRPRPWLSPRP",
    "shrunken log2 fold change": 0.0988
  },
  {
    "constructSequence": "RRIRRRPPRLPRPRPRPDFIPRP",
    "shrunken log2 fold change": 0.0171
  },
  {
    "constructSequence": "RRIRARPPRLPRPRPRPRNVPRP",
    "shrunken log2 fold change": 0.0957
  },
  {
    "constructSequence": "RRIRQRPPRLPRPRPRPEGEPRP",
    "shrunken log2 fold change": 0.0215
  },
  {
    "constructSequence": "RRIRTRPPRLPRPRPRPNIYPRP",
    "shrunken log2 fold change": 0.0647
  },
  {
    "constructSequence": "RRIRWRPPRLPRPRPRPRSNPRP",
    "shrunken log2 fold change": -0.133
  },
  {
    "constructSequence": "RRIRVRPPRLPRPRPRPDHMPRP",
    "shrunken log2 fold change": -0.384
  },
  {
    "constructSequence": "RRIRGRPPRLPRPRPRPKWFPRP",
    "shrunken log2 fold change": 0.0384
  },
  {
    "constructSequence": "RRIRERPPRLPRPRPRPPAGPRP",
    "shrunken log2 fold change": 0.589
  },
  {
    "constructSequence": "RRIRLRPPRLPRPRPRPHADPRP",
    "shrunken log2 fold change": -0.299
  },
  {
    "constructSequence": "RRIRCRPPRLPRPRPRPKCGPRP",
    "shrunken log2 fold change": 0.0778
  },
  {
    "constructSequence": "RRIRWRPPRLPRPRPRPGMNPRP",
    "shrunken log2 fold change": -0.0747
  },
  {
    "constructSequence": "RRIRNRPPRLPRPRPRPHDQPRP",
    "shrunken log2 fold change": 0.0402
  },
  {
    "constructSequence": "RRIRFRPPRLPRPRPRPPMCPRP",
    "shrunken log2 fold change": -0.0102
  },
  {
    "constructSequence": "RRIRWRPPRLPRPRPRPDRVPRP",
    "shrunken log2 fold change": 0.0957
  },
  {
    "constructSequence": "RRIRVRPPRLPRPRPRPDDWPRP",
    "shrunken log2 fold change": -0.198
  },
  {
    "constructSequence": "RRIRKRPPRLPRPRPRPNQKPRP",
    "shrunken log2 fold change": 0.11
  },
  {
    "constructSequence": "RRIRNRPPRLPRPRPRPVTGPRP",
    "shrunken log2 fold change": -0.362
  },
  {
    "constructSequence": "RRIRERPPRLPRPRPRPENLPRP",
    "shrunken log2 fold change": -0.226
  },
  {
    "constructSequence": "RRIRIRPPRLPRPRPRPQVHPRP",
    "shrunken log2 fold change": -0.707
  },
  {
    "constructSequence": "RRIRERPPRLPRPRPRPVTDPRP",
    "shrunken log2 fold change": -0.069
  },
  {
    "constructSequence": "RRIRQRPPRLPRPRPRPCTWPRP",
    "shrunken log2 fold change": -0.464
  },
  {
    "constructSequence": "RRIRRRPPRLPRPRPRPTDEPRP",
    "shrunken log2 fold change": 0.355
  },
  {
    "constructSequence": "RRIRRRPPRLPRPRPRPWLGPRP",
    "shrunken log2 fold change": 0.353
  },
  {
    "constructSequence": "RRIRMRPPRLPRPRPRPQKTPRP",
    "shrunken log2 fold change": -0.0249
  },
  {
    "constructSequence": "RRIRHRPPRLPRPRPRPDGVPRP",
    "shrunken log2 fold change": 0.0513
  },
  {
    "constructSequence": "RRIRTRPPRLPRPRPRPQSWPRP",
    "shrunken log2 fold change": 0.234
  },
  {
    "constructSequence": "RRIRMRPPRLPRPRPRPGFVPRP",
    "shrunken log2 fold change": 0.449
  },
  {
    "constructSequence": "RRIRFRPPRLPRPRPRPHPEPRP",
    "shrunken log2 fold change": -0.00858
  },
  {
    "constructSequence": "RRIRCRPPRLPRPRPRPETDPRP",
    "shrunken log2 fold change": -0.00874
  },
  {
    "constructSequence": "RRIRTRPPRLPRPRPRPQYWPRP",
    "shrunken log2 fold change": -0.163
  },
  {
    "constructSequence": "RRIRVRPPRLPRPRPRPTWCPRP",
    "shrunken log2 fold change": 0.216
  }
]

* * *

System: Escherichia coli TOP10;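 further: peptides expressed intracellularly from a pBAD plasmid library in pooled LB shake-flask culture, induced with 0.3% L-arabinose, DNA abundance read by NGS, three biological replicates, DESeq2 with apeglm shrinkage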
protocolSummary: shrunken log2 fold change of peptide-encoding DNA abundance (4.5 h post-induction vs induction); higher = less antimicrobial activity (less host growth inhibition)
protocolConditions: time post-induction: 4.5 h; library: site-saturation at positions 5, 18, 19, 20
Label scheme for shrunken log2 fold change: lower than 0.007 is Condition not met, 0.007 and above is Condition met.

[
  {
    "constructSequence": "RRIRWRPPRLPRPRPRPRFIPRP",
    "category": "Condition not met"
  },
  {
    "constructSequence": "RRIRVRPPRLPRPRPRPVWHPRP",
    "category": "Condition met"
  },
  {
    "constructSequence": "RRIRWRPPRLPRPRPRPPIDPRP",
    "category": "Condition met"
  },
  {
    "constructSequence": "RRIRMRPPRLPRPRPRPGSIPRP",
    "category": "Condition met"
  },
  {
    "constructSequence": "RRIRIRPPRLPRPRPRPMCEPRP",
    "category": "Condition not met"
  },
  {
    "constructSequence": "RRIRERPPRLPRPRPRPKSIPRP",
    "category": "Condition not met"
  },
  {
    "constructSequence": "RRIRPRPPRLPRPRPRPTLWPRP",
    "category": "Condition met"
  },
  {
    "constructSequence": "RRIRKRPPRLPRPRPRPELNPRP",
    "category": "Condition met"
  },
  {
    "constructSequence": "RRIRFRPPRLPRPRPRPRPTPRP",
    "category": "Condition met"
  },
  {
    "constructSequence": "RRIRGRPPRLPRPRPRPYLGPRP",
    "category": "Condition met"
  },
  {
    "constructSequence": "RRIRPRPPRLPRPRPRPNWSPRP",
    "category": "Condition met"
  },
  {
    "constructSequence": "RRIRFRPPRLPRPRPRPSTCPRP",
    "category": "Condition not met"
  },
  {
    "constructSequence": "RRIRSRPPRLPRPRPRPGHIPRP",
    "category": "Condition not met"
  },
  {
    "constructSequence": "RRIRGRPPRLPRPRPRPGHRPRP",
    "category": "Condition met"
  },
  {
    "constructSequence": "RRIRVRPPRLPRPRPRPIFIPRP",
    "category": "Condition not met"
  },
  {
    "constructSequence": "RRIRDRPPRLPRPRPRPAKMPRP",
    "category": "Condition not met"
  },
  {
    "constructSequence": "RRIRMRPPRLPRPRPRPVFDPRP",
    "category": "Condition met"
  },
  {
    "constructSequence": "RRIRKRPPRLPRPRPRPNTEPRP",
    "category": "Condition met"
  },
  {
    "constructSequence": "RRIRIRPPRLPRPRPRPNEKPRP",
    "category": "Condition not met"
  },
  {
    "constructSequence": "RRIRLRPPRLPRPRPRPWKNPRP",
    "category": "Condition not met"
  },
  {
    "constructSequence": "RRIRHRPPRLPRPRPRPILSPRP",
    "category": "Condition not met"
  },
  {
    "constructSequence": "RRIRHRPPRLPRPRPRPVNNPRP",
    "category": "Condition not met"
  },
  {
    "constructSequence": "RRIRIRPPRLPRPRPRPKRAPRP",
    "category": "Condition met"
  },
  {
    "constructSequence": "RRIRNRPPRLPRPRPRPKSPPRP",
    "category": "Condition met"
  },
  {
    "constructSequence": "RRIRFRPPRLPRPRPRPSTSPRP",
    "category": "Condition not met"
  },
  {
    "constructSequence": "RRIRPRPPRLPRPRPRPIDCPRP",
    "category": "Condition not met"
  },
  {
    "constructSequence": "RRIRLRPPRLPRPRPRPVRRPRP",
    "category": "Condition met"
  },
  {
    "constructSequence": "RRIRFRPPRLPRPRPRPRLAPRP",
    "category": "Condition met"
  },
  {
    "constructSequence": "RRIRARPPRLPRPRPRPKDFPRP",
    "category": "Condition not met"
  },
  {
    "constructSequence": "RRIRSRPPRLPRPRPRPGHFPRP",
    "category": "Condition not met"
  },
  {
    "constructSequence": "RRIRRRPPRLPRPRPRPNMKPRP",
    "category": "Condition met"
  },
  {
    "constructSequence": "RRIRDRPPRLPRPRPRPHVMPRP",
    "category": "Condition not met"
  },
  {
    "constructSequence": "RRIRWRPPRLPRPRPRPGAFPRP",
    "category": "Condition met"
  },
  {
    "constructSequence": "RRIRIRPPRLPRPRPRPLNFPRP",
    "category": "Condition not met"
  },
  {
    "constructSequence": "RRIRQRPPRLPRPRPRPMSHPRP",
    "category": "Condition not met"
  },
  {
    "constructSequence": "RRIRGRPPRLPRPRPRPCTDPRP",
    "category": "Condition met"
  },
  {
    "constructSequence": "RRIRVRPPRLPRPRPRPCVYPRP",
    "category": "Condition not met"
  },
  {
    "constructSequence": "RRIRSRPPRLPRPRPRPMDRPRP",
    "category": "Condition not met"
  },
  {
    "constructSequence": "RRIRSRPPRLPRPRPRPPAYPRP",
    "category": "Condition not met"
  },
  {
    "constructSequence": "RRIRTRPPRLPRPRPRPVHWPRP",
    "category": "Condition met"
  },
  {
    "constructSequence": "RRIRARPPRLPRPRPRPECVPRP",
    "category": "Condition met"
  },
  {
    "constructSequence": "RRIRIRPPRLPRPRPRPPNTPRP",
    "category": "Condition not met"
  },
  {
    "constructSequence": "RRIRTRPPRLPRPRPRPAQYPRP",
    "category": "Condition met"
  },
  {
    "constructSequence": "RRIRSRPPRLPRPRPRPNICPRP",
    "category": "Condition not met"
  },
  {
    "constructSequence": "RRIRRRPPRLPRPRPRPFGCPRP",
    "category": "Condition met"
  },
  {
    "constructSequence": "RRIRNRPPRLPRPRPRPDPWPRP",
    "category": "Condition met"
  },
  {
    "constructSequence": "RRIRFRPPRLPRPRPRPFDKPRP",
    "category": "Condition not met"
  },
  {
    "constructSequence": "RRIRPRPPRLPRPRPRPVTKPRP",
    "category": "Condition met"
  },
  {
    "constructSequence": "RRIRGRPPRLPRPRPRPYRLPRP",
    "category": "Condition not met"
  },
  {
    "constructSequence": "RRIRDRPPRLPRPRPRPGCIPRP",
    "category": "Condition not met"
  },
  {
    "constructSequence": "RRIRARPPRLPRPRPRPDSQPRP",
    "category": "Condition met"
  },
  {
    "constructSequence": "RRIRDRPPRLPRPRPRPKSLPRP",
    "category": "Condition met"
  },
  {
    "constructSequence": "RRIRYRPPRLPRPRPRPANYPRP",
    "category": "Condition not met"
  },
  {
    "constructSequence": "RRIRIRPPRLPRPRPRPEYQPRP",
    "category": "Condition met"
  },
  {
    "constructSequence": "RRIRIRPPRLPRPRPRPGNKPRP",
    "category": "Condition not met"
  },
  {
    "constructSequence": "RRIRARPPRLPRPRPRPFPIPRP",
    "category": "Condition met"
  },
  {
    "constructSequence": "RRIRTRPPRLPRPRPRPPFPPRP",
    "category": "Condition met"
  },
  {
    "constructSequence": "RRIRARPPRLPRPRPRPKDNPRP",
    "category": "Condition met"
  },
  {
    "constructSequence": "RRIRNRPPRLPRPRPRPGKAPRP",
    "category": "Condition not met"
  },
  {
    "constructSequence": "RRIRPRPPRLPRPRPRPDVCPRP",
    "category": "Condition not met"
  },
  {
    "constructSequence": "RRIRIRPPRLPRPRPRPSCRPRP",
    "category": "Condition not met"
  },
  {
    "constructSequence": "RRIRMRPPRLPRPRPRPVVVPRP",
    "category": "Condition not met"
  },
  {
    "constructSequence": "RRIRLRPPRLPRPRPRPWMDPRP",
    "category": "Condition met"
  }
]
